Tested on: multi-drug resistant A. baumannii strains
Assay: Minimum inhibitory concentration (MIC), broth microdilution method according to CLSI guidelines
Format: cell-based, Acinetobacter baumannii
Settings: Acinetobacter baumannii; multi-drug resistant A. baumannii strains; broth microdilution in MH broth, 18 h at 37° C.; read-out: MIC against A. baumannii
measurement label: MIC

# input Request - read-out MIC | tested on multi-drug resistant A. baumannii strains | molecule CC/C=C/[C@@H](O)[C@@H](Cl)[C@H](O)CC(O)[C@@H](O)[C@H](O)[C@H](C)/C(Cl)=C/C=C/C=C(C)/C=C/C=C/C(=O)O[C@@H]1C[C@@H](C(=O)O)CC[C@@H]1O (stereo in doubt) [Compound 9, 15-hydroxy-decarbamoyl enacyloxin IIa]
# output 1 µg/mL

# input Observed MIC on multi-drug resistant A. baumannii strains for CC/C=C/[C@@H](O)C[C@H](O)CC(O)[C@@H](O)[C@H](O)[C@H](C)/C(Br)=C/C=C/C=C(C)/C=C/C=C/C(=O)O[C@@H]1C[C@@H](C(=O)O)CC[C@@H]1O (stereo partly drawn) , please.
# output 32 µg/mL

# input Checklist item: MIC tested on multi-drug resistant A. baumannii strains, entry CC/C=C/[C@@H](OC(N)=O)[C@@H](Cl)[C@H](O)CC(=O)[C@@H](O)[C@H](O)[C@H](C)/C(Cl)=C/C=C/C=C(C)/C=C/C=C/C(=O)N[C@H]1CCC[C@H](C(=O)O)C1 , value?
# output 8 µg/mL

# input Field: MIC (multi-drug resistant A. baumannii strains). Entry: CC/C=C/[C@@H](OC(N)=O)[C@@H](Br)[C@H](O)CC(=O)[C@@H](O)[C@H](O)[C@H](C)/C(Br)=C/C=C/C=C(C)/C=C/C=C/C(=O)O[C@@H]1C[C@@H](C(=O)O)CC[C@@H]1O
# output 1 µg/mL

# input Requested read-out MIC, target or system multi-drug resistant A. baumannii strains, entry CC/C=C/C1OC(O)(C[C@H](O)[C@H](C)/C(Cl)=C/C=C/C=C(C)/C=C/C=C/C(=O)O[C@@H]2C[C@@H](C(=O)O)CC[C@@H]2O)CC(O)C1Cl (stereo partly drawn)
# output 8 µg/mL

# input GET /values?readout=MIC&system=multi-drug resistant A. baumannii strains&item= CC/C=C/[C@@H](OC(N)=O)[C@@H](Cl)[C@H](O)CC(=O)[C@@H](O)[C@H](O)[C@H](C)/C(Cl)=C/C=C/C=C(C)/C=C/C=C/C(=O)O[C@H]1CCC[C@H](C(=O)O)C1
# output 4 µg/mL

# input Record CC/C=C/[C@@H](OC(N)=O)[C@@H](Cl)[C@H](O)CC(=O)C[C@H](O)[C@H](C)/C(Cl)=C/C=C/C=C(C)/C=C/C=C/C(=O)O[C@@H]1C[C@@H](C(=O)O)CC[C@@H]1O [Compound 1, 14-dehydroxy-enacyloxin IIa] : what is its MIC with multi-drug resistant A. baumannii strains?
# output 2 µg/mL

# input Item CC/C=C/[C@H](C[C@H](O)CC(=O)C[C@H](O)[C@H](C)/C(Cl)=C/C=C/C=C(C)/C=C/C=C/C(=O)O[C@@H]1C[C@@H](C(=O)O)CC[C@@H]1O)OC(N)=O [Compound 6, 14-dehydroxy-18-dechloro-enacyloxin IIa] with multi-drug resistant A. baumannii strains - MIC?
# output 8 µg/mL

# input Find MIC (multi-drug resistant A. baumannii strains) for the entry CC/C=C/[C@@H](O)[C@@H](Cl)[C@H](O)C[C@@H](O)[C@@H](O)[C@H](O)[C@H](C)/C(Cl)=C/C=C/C=C(C)/C=C/C=C/C(=O)O[C@@H]1CC(C(=O)O)=CC[C@@H]1O
# output 1 µg/mL

# input Form field - read-out: MIC; system: multi-drug resistant A. baumannii strains; submitted item: CC/C=C/[C@@H](OC(N)=O)[C@@H](Cl)[C@H](O)CC(=O)[C@@H](O)[C@H](O)[C@H](C)/C(Br)=C/C=C/C=C(C)/C=C/C=C/C(=O)O[C@@H]1C[C@@H](C(=O)O)CC[C@@H]1O
# output 2 µg/mL

# input Can you look up MIC on multi-drug resistant A. baumannii strains for CC/C=C/[C@@H](O)C[C@H](O)CC(O)C[C@H](O)[C@H](C)/C=C/C=C/C=C(C)/C=C/C=C/C(=O)O[C@@H]1C[C@@H](C(=O)O)CC[C@@H]1O (stereo partly drawn) ?
# output > 64 µg/mL

# input Could you share what MIC was measured for CC/C=C/[C@@H](OC(N)=O)[C@@H](Cl)[C@H](O)CC(=O)[C@@H](O)[C@H](O)[C@H](C)/C(Cl)=C/C=C/C=C(C)/C=C/C=C/C(=O)O[C@@H]1C[C@H](C(=O)O)CC[C@H]1O , tested on multi-drug resistant A. baumannii strains?
# output 2 µg/mL

# input Can you look up MIC on multi-drug resistant A. baumannii strains for CC/C=C/[C@@H](OC(N)=O)[C@@H](Cl)[C@H](O)CC(=O)[C@@H](O)[C@H](O)[C@H](C)/C=C/C=C/C=C(C)/C=C/C=C/C(=O)O[C@@H]1C[C@@H](C(=O)O)CC[C@@H]1O ?
# output 4 µg/mL

# input // map CC/C=C/C1OC(O)([C@@H](O)[C@H](O)[C@H](C)/C(Cl)=C/C=C/C=C(C)/C=C/C=C/C(=O)O[C@@H]2C[C@@H](C(=O)O)CC[C@@H]2O)CC(O)C1Cl (stereo partly drawn) to recorded MIC (system: multi-drug resistant A. baumannii strains)
# output 4 µg/mL

# input # returns recorded MIC (system: multi-drug resistant A. baumannii strains) for CC/C=C/[C@@H](O)[C@@H](Br)[C@H](O)CC(O)[C@@H](O)[C@H](O)[C@H](C)/C(Br)=C/C=C/C=C(C)/C=C/C=C/C(=O)O[C@@H]1C[C@@H](C(=O)O)CC[C@@H]1O (stereo partly drawn)
# output 1 µg/mL

# input Look up MIC with multi-drug resistant A. baumannii strains for this molecule: CC/C=C/[C@H](C[C@H](O)CC(=O)[C@@H](O)[C@H](O)[C@H](C)/C(Br)=C/C=C/C=C(C)/C=C/C=C/C(=O)O[C@@H]1C[C@@H](C(=O)O)CC[C@@H]1O)OC(N)=O
# output 16 µg/mL

# input Value wanted: MIC (multi-drug resistant A. baumannii strains) of entry CC/C=C/[C@@H](O)C[C@H](O)CC(O)[C@@H](O)[C@H](O)[C@H](C)/C(Cl)=C/C=C/C=C(C)/C=C/C=C/C(=O)O[C@@H]1C[C@@H](C(=O)O)CC[C@@H]1O (stereo partly drawn)
# output 8 µg/mL

# input Kindly state the measured MIC obtained for CC/C=C/[C@@H](OC(N)=O)[C@@H](Cl)[C@H](O)CC(=O)[C@@H](O)[C@H](O)[C@H](C)/C(Cl)=C/C=C/C=C(C)/C=C/C=C/C(=O)O[C@@H]1CC(C(=O)O)=CC[C@@H]1O with multi-drug resistant A. baumannii strains.
# output 0.5 µg/mL
